Biological target: mu opiate receptor (MOR) (Rattus norvegicus)
Construct: from tissue; host or cells: striatum (membrane preparation)
Type: biochemical
Overview of reported % DAMGO (0.1 μM) across a group of compounds:

compound: CC(=O)c1ccc(S(=O)(=O)N2CCC3(CC2)OCCN3S(=O)(=O)c2ccc(C(C)=O)cc2)cc1 [Compound C0011]
testedSystem: mu opiate receptor (MOR) (Rattus norvegicus)
% DAMGO (0.1 μM) [%]: 126.8
--
compound: CC(=O)c1ccc(S(=O)(=O)N2C(Cc3c[nH]cn3)C(=O)NC23CCNCC3)cc1 (centres unmarked) [Compound C0119M]
testedSystem: mu opiate receptor (MOR) (Rattus norvegicus)
% DAMGO (0.1 μM) [%]: 71.9
--
compound: CC1CCC(C(C)C)C(OCC(O)CN2CCCCC2=O)C1 (centres unmarked) [Compound A0036]
testedSystem: mu opiate receptor (MOR) (Rattus norvegicus)
% DAMGO (0.1 μM) [%]: 73.4
--
compound: COc1ccc(NC(=O)N2CCC3(CC2)OCCN3C(=O)Nc2ccc(OC)cc2)cc1 [Compound C0151M]
testedSystem: mu opiate receptor (MOR) (Rattus norvegicus)
% DAMGO (0.1 μM) [%]: 201.6
--
compound: COc1ccc(S(=O)(=O)N2CCC3(CC2)NCCC(=O)N3)cc1 [Compound C0142M]
testedSystem: mu opiate receptor (MOR) (Rattus norvegicus)
% DAMGO (0.1 μM) [%]: 97.8
--
compound: CCc1ccc(S(=O)(=O)N2CCOC23CCN(CC2CC2)CC3)cc1 [Compound C0135M]
testedSystem: mu opiate receptor (MOR) (Rattus norvegicus)
% DAMGO (0.1 μM) [%]: 85.3
--
compound: CC1CCC(C(C)C)C(OCC(O)CN2CCCCC2)C1 (centres unmarked) [Compound A0005]
testedSystem: mu opiate receptor (MOR) (Rattus norvegicus)
% DAMGO (0.1 μM) [%]: 105.0
--
compound: CC(=O)c1ccc(C(=O)N2CCC3(CC2)OCCN3C(=O)c2ccc(C(C)=O)cc2)cc1 [Compound C0054]
testedSystem: mu opiate receptor (MOR) (Rattus norvegicus)
% DAMGO (0.1 μM) [%]: 47.0
--
compound: OC(COc1ccc(Br)c(F)c1)CN1CCCCC1 (centres unmarked) [Compound A0058]
testedSystem: mu opiate receptor (MOR) (Rattus norvegicus)
% DAMGO (0.1 μM) [%]: 45.3
--
compound: COCOc1ccc(C(=O)CC2c3c(cc4c(c3OC)OCO4)CC[N+]2(C)C)cc1C (centres unmarked) [Compound B0041]
testedSystem: mu opiate receptor (MOR) (Rattus norvegicus)
% DAMGO (0.1 μM) [%]: 39.3
--
compound: CCN(CC)CC(O)COC1CC(C)CCC1C(C)C (centres unmarked) [Compound A0032]
testedSystem: mu opiate receptor (MOR) (Rattus norvegicus)
% DAMGO (0.1 μM) [%]: 115.6
--
compound: O=S(=O)(c1ccc(Br)cc1)N1CCC2(CC1)OCCN2S(=O)(=O)c1ccc(Br)cc1 [Compound C0025]
testedSystem: mu opiate receptor (MOR) (Rattus norvegicus)
% DAMGO (0.1 μM) [%]: 122.6
--
compound: C=CCN1CCC2(CC1)OCCN2S(=O)(=O)c1ccc(OC)cc1 [Compound C0091M]
testedSystem: mu opiate receptor (MOR) (Rattus norvegicus)
% DAMGO (0.1 μM) [%]: 118.1
--
compound: CC1CCC(C(C)C)C(OCC(CN2CC(C)OC(C)C2)NCc2ccccc2)C1 (centres unmarked) [Compound A0033]
testedSystem: mu opiate receptor (MOR) (Rattus norvegicus)
% DAMGO (0.1 μM) [%]: 79.4
--
compound: COc1c2c(cc3c1C(CC(O)CCc1ccccc1)[N+](C)(C)CC3)OCO2 (centres unmarked) [Compound B0052]
testedSystem: mu opiate receptor (MOR) (Rattus norvegicus)
% DAMGO (0.1 μM) [%]: 58.1
--
compound: COc1ccc(C(=O)CC2c3c(cc4c(c3OC)OCO4)CC[N+]2(C)C)c(O)c1 (centres unmarked) [Compound B0033]
testedSystem: mu opiate receptor (MOR) (Rattus norvegicus)
% DAMGO (0.1 μM) [%]: 77.6
--
compound: CC1CN(CC(O)COC2CCCCC2)CC(C)O1 (centres unmarked) [Compound A0017]
testedSystem: mu opiate receptor (MOR) (Rattus norvegicus)
% DAMGO (0.1 μM) [%]: 96.9
--
compound: COc1ccc(N2CCN(CC(O)COC3CC(C)CCC3C(C)C)CC2)c(OC)c1 (centres unmarked) [Compound A0012]
testedSystem: mu opiate receptor (MOR) (Rattus norvegicus)
% DAMGO (0.1 μM) [%]: 99.9
--
compound: CC1CN(CC(O)COc2cc(F)cc(F)c2)CC(C)O1 (centres unmarked) [Compound A0046]
testedSystem: mu opiate receptor (MOR) (Rattus norvegicus)
% DAMGO (0.1 μM) [%]: 131.2
--
compound: COc1ccccc1S(=O)(=O)N1CCC2(CC1)OCCN2S(=O)(=O)c1ccccc1OC [Compound C0003]
testedSystem: mu opiate receptor (MOR) (Rattus norvegicus)
% DAMGO (0.1 μM) [%]: 91.9
--
compound: O=[N+]([O-])c1ccc(S(=O)(=O)N2CCC3(CC2)NCCS3)cc1 [Compound C0044]
testedSystem: mu opiate receptor (MOR) (Rattus norvegicus)
% DAMGO (0.1 μM) [%]: 102.8
--
compound: O=C1CN(C2CCc3ccccc3C2)C2(CCN(S(=O)(=O)c3ccccc3)CC2)N1 (centres unmarked) [C0136M(P5)]
testedSystem: mu opiate receptor (MOR) (Rattus norvegicus)
% DAMGO (0.1 μM) [%]: 93.4
--
compound: COc1ccc(S(=O)(=O)N2CCOC23CCN(S(=O)(=O)c2ccc(C(C)=O)cc2)CC3)cc1 [Compound C0047]
testedSystem: mu opiate receptor (MOR) (Rattus norvegicus)
% DAMGO (0.1 μM) [%]: 98.1

###

Overview of reported Concentration of FLNA-Binding Compound as Agonist 0.1 μM across a group of compounds:
Molecular target: mu opiate receptor (MOR) (Rattus norvegicus)
Construct: from tissue; host or cells: striatum (membrane preparation)
Assay type: biochemical
Conditions: [35S]GTPγS binding to Gαo in striatal membranes; compound 0.1 μM
parameterMeasured: Concentration of FLNA-Binding Compound as Agonist 0.1 μM (%)

compound: Cc1ccc(C(C)C)c(OCC(O)CN2CC(C)OC(C)C2)c1 (centres unmarked)
unitDescriptor: %
endpointValue: 143.6
//
compound: COc1ccc(S(=O)(=O)N2CCC3(OCCN3S(=O)(=O)c3ccc(OC)cc3)C3CCCCC32)cc1 (centres unmarked) [Compound C0144M]
unitDescriptor: %
endpointValue: 186.3
//
compound: COC(=O)c1ccc(S(=O)(=O)N2CCC3(CC2)OCCN3S(=O)(=O)c2ccc(C(=O)OC)cc2)cc1
unitDescriptor: %
endpointValue: 93.9
//
compound: COc1ccc(C(=O)N2CCOC23CCN(S(=O)(=O)c2ccc(OC)cc2)CC3)cc1
unitDescriptor: %
endpointValue: 104.4
//
compound: CC1CN(CC(O)COC2CCCCC2)CC(C)O1 (centres unmarked)
unitDescriptor: %
endpointValue: 161.9

###

Overview of reported % DAMGO (0.1 μM) across a group of compounds:
Biological target: mu opiate receptor (MOR) (Rattus norvegicus, UniProt P33535)
Construct: from tissue; host or cells: striatum (membrane preparation)
Sequence (P33535 whole entry): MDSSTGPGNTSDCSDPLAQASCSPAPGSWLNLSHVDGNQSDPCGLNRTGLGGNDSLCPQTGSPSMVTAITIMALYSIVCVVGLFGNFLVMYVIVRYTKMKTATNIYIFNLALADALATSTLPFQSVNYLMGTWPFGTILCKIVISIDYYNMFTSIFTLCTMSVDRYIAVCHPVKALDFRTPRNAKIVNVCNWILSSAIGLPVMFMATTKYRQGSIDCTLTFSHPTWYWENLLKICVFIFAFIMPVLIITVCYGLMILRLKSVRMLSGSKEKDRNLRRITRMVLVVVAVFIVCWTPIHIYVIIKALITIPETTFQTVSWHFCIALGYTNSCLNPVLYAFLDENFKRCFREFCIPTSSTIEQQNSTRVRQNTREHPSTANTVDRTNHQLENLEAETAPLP
Assay type: biochemical

compound: CC1CCC(C(C)C)C(OCC(O)CN2CCCN(C)CC2)C1 (stereo not shown) [Compound A0010]
% DAMGO (0.1 μM): 161.9%
//
compound: CC(=O)c1ccc(S(=O)(=O)N2CCC3(CC2)OC(CN(C)C)CN3S(=O)(=O)c2ccc(C(C)=O)cc2)cc1 (stereo not shown) [Compound C0065]
% DAMGO (0.1 μM): 127.0%
//
compound: N#Cc1ccc(S(=O)(=O)N2CCC3(CC2)OCCN3S(=O)(=O)c2ccc(C#N)cc2)cc1 [Compound C0008]
% DAMGO (0.1 μM): 41.4%
//
compound: CS(=O)(=O)c1ccc(S(=O)(=O)N2CCC3(CC2)OCCN3S(=O)(=O)c2ccc(S(C)(=O)=O)cc2)cc1 [Compound C0009]
% DAMGO (0.1 μM): 85.1%

###

Biological target: mu opiate receptor (MOR) (Rattus norvegicus, UniProt P33535)
Construct: from tissue; host or cells: striatum (membrane preparation)
Assay type: biochemical
Conditions: [35S]GTPγS binding to Gαo in striatal membranes; compound 0.1 μM
parameterMeasured: Concentration of FLNA-Binding Compound as Agonist 0.1 μM

molecule: CC1CCC(C(C)C)C(OCC(O)CN2CCN(CCc3ccccc3)CC2)C1 (stereo not drawn)
endpointValue: 168.6%
//
molecule: COc1ccc(CCC(=O)CC2c3c(cc4c(c3OC)OCO4)CC[N+]2(C)C)cc1OC (stereo not drawn)
endpointValue: 69.9%
//
molecule: CC1CCCC(OCC(O)CN2CC(C)OC(C)C2)C1 (stereo not drawn)
endpointValue: 133.3%
//
molecule: CC1CCC(C(C)C)C(OCC(CN2CC(C)OC(C)C2)NCc2ccccc2)C1 (stereo not drawn)
endpointValue: 155.8%
//
molecule: COc1ccc(OCC(O)CN2CCOc3ccccc32)cc1 (stereo not drawn)
endpointValue: 79.8%
//
molecule: O=S(=O)(c1ccc(Br)cc1F)N1CCC2(CC1)OCCN2S(=O)(=O)c1ccc(Br)cc1F
endpointValue: 138.1%
//
molecule: COc1ccc(S(=O)(=O)N2CCC3(CC2)OCCN3S(=O)(=O)c2ccc(OC)c(OC)c2)cc1OC
endpointValue: 106.6%
//
molecule: COc1cccc(OC)c1CC(=O)CC1c2c(cc3c(c2OC)OCO3)CC[N+]1(C)C (stereo not drawn)
endpointValue: 61.4%
//
molecule: CC1CCC(C(C)C)C(OCC(O)CN2CCC(=O)CC2)C1 (stereo not drawn)
endpointValue: 99.7%
//
molecule: CC1CN(CC(O)COc2ccccc2Br)CC(C)O1 (stereo not drawn)
endpointValue: 183.3%
//
molecule: COc1c2c(cc3c1C(CC(=O)Cc1ccccc1C)N(C)CC3)OCO2 (stereo not drawn)
endpointValue: 160.2%
//
molecule: CC1CN(CC(O)COc2ccc(Br)c(F)c2)CC(C)O1 (stereo not drawn)
endpointValue: 212.7%
